biological target: Nav 1.7 (Homo sapiens (Human)); test: in-vitro Nav 1.7 PX data; type: cell-based; conditions: in-vitro Nav 1.7 PX data
Sequence (Q15858 whole entry): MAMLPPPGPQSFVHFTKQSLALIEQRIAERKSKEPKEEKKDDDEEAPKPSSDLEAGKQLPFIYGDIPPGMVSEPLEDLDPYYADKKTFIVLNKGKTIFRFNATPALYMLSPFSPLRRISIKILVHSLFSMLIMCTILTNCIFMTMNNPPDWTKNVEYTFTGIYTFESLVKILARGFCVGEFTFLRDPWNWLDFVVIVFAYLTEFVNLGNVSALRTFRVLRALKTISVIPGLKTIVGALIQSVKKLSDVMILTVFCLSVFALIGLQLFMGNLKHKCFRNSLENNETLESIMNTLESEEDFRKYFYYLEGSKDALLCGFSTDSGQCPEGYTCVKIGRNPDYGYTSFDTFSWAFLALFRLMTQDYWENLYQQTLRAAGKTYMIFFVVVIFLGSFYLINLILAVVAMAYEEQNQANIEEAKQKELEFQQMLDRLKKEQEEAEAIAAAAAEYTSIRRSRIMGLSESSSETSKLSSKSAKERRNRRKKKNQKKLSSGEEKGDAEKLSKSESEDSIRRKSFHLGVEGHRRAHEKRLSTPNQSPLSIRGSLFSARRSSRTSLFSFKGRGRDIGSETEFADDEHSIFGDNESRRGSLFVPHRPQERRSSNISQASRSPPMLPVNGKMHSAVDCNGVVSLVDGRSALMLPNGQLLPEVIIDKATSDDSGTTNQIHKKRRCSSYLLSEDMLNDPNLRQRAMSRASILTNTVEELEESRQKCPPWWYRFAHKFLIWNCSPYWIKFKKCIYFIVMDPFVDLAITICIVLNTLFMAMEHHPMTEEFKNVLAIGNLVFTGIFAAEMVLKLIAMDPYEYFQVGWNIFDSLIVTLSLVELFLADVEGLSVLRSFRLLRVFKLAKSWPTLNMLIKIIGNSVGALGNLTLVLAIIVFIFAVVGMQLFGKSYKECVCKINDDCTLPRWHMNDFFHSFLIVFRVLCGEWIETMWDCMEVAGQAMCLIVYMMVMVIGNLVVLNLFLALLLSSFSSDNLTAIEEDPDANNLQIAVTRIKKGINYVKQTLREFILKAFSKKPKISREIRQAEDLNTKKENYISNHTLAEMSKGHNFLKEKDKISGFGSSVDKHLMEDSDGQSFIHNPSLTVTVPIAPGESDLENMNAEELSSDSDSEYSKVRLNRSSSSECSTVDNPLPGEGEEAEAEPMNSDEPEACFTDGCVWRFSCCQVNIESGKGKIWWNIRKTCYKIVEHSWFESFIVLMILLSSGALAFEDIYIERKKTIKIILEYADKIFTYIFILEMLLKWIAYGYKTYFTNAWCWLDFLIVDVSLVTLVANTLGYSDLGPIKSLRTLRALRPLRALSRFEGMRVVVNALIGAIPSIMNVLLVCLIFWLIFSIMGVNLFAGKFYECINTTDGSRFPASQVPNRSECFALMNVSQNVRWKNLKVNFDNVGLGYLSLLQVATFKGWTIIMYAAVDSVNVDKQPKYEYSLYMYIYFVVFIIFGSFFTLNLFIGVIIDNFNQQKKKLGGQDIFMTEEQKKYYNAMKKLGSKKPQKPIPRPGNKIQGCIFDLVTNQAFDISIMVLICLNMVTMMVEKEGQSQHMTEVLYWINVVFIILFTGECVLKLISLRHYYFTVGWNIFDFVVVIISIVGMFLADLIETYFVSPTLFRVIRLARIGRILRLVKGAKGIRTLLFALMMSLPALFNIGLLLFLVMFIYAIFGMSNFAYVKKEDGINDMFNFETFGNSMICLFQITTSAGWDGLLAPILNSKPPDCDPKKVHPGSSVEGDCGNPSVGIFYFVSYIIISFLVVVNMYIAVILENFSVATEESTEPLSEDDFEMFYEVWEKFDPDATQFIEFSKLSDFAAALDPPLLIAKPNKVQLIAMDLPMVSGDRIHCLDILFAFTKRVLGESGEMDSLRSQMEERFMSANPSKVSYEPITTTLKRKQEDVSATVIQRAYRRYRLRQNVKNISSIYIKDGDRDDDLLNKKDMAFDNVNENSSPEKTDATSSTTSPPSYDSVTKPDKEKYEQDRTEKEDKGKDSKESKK

| MOLECULE | IC50 (nM) |
| --- | --- |
| COc1cc(-c2cc(F)cc(F)c2)ccc1-c1nccc2cc(S(=O)(=O)Nc3ccccn3)ccc12 | 1010 |
| COc1cc(-c2nccc3cc(S(=O)(=O)Nc4ccon4)ccc23)c(C)cc1-c1cccc(F)c1 | 2720 |
| COc1cc(-c2cc(F)cc(F)c2)ccc1-c1nccc2cc(S(=O)(=O)Nc3ncc(C(F)(F)F)o3)ccc12 | 3220 |
| COc1cc(-c2ccc(C)c(F)c2)c(C#N)cc1-c1nccc2cc(S(=O)(=O)Nc3ccncn3)ccc12 | 92.1 |
| COc1cc(-c2cc(F)cc(F)c2)ccc1-c1nccc2cc(S(=O)(=O)Nc3cnccn3)ccc12 | 652 |
| COc1cc(-c2cccc(C)c2)c(C#N)cc1-c1nccc2cc(S(=O)(=O)Nc3ccncn3)ccc12 | 47.3 |
| COc1cc(-c2ccc(F)c(C)c2)c(C#N)cc1-c1nccc2cc(S(=O)(=O)Nc3ccncn3)ccc12 | 45.5 |
| COc1cc(-c2cc(F)cc(F)c2)c(C)cc1-c1nccc2cc(S(=O)(=O)Nc3nncs3)ccc12 | 34.9 |
| COc1cc(C(F)F)c(Cl)cc1-c1nccc2cc(S(=O)(=O)Nc3ccon3)ccc12 | 104 |
| COc1cc(Oc2ccccc2C)ccc1-c1nccc2cc(S(=O)(=O)Nc3ccncn3)ccc12 | 171 |
| COc1cc(-c2ccc(F)c(F)c2)c(C)cc1-c1nccc2cc(S(=O)(=O)Nc3nncs3)ccc12 | 33.4 |
| COc1ccc(F)cc1-c1cc(OC)c(-c2nccc3cc(S(=O)(=O)Nc4ccncn4)ccc23)cc1C#N | 470 |
| Cc1ccc(OCC2CC2)cc1-c1nccc2cc(S(=O)(=O)Nc3ccncn3)ccc12 | 7680 |
| COc1cc(-c2cccc(C(F)(F)F)c2)c(C#N)cc1-c1nccc2cc(S(=O)(=O)Nc3ccon3)ccc12 [Example 148] | 28.6 |
| COc1cc(-c2nccc3cc(S(=O)(=O)Nc4ccon4)ccc23)c(C)cc1-c1ccc(Cl)c(C)c1 | 3300 |

Reference for the values: patent US9776995B2
